# MEASUREMENT_CONTEXT: in methyl acetate, 278.15 K
METRIC_NAME: solubility (mole fraction)
Simply state the number, no unit and no words.

Reported solubility (mole fraction) for "Cc1cc(Cl)ccc1OCC(=O)O" was 0.0958

---

# MEASUREMENT_CONTEXT: in n-propyl acetate, 278.15 K
METRIC_NAME: solubility (mole fraction)
Note: the reply should be a number with no unit written.

Just so you know, measured solubility (mole fraction) for "Cc1cc(Cl)ccc1OCC(=O)O" came out at 0.0958

---

# MEASUREMENT_CONTEXT: in methyl acetate, 303.15 K
METRIC_NAME: solubility (mole fraction)
Form: value (number only, do not type unit).

Form field solubility (mole fraction), entry "Cc1cc(Cl)ccc1OCC(=O)O" : 0.17

---

# MEASUREMENT_CONTEXT: in isopropanol, 308.15 K
METRIC_NAME: solubility (mole fraction)
Number only, please.

Lab note: "Cc1cc(Cl)ccc1OCC(=O)O" gave solubility (mole fraction) of 0.27

---

# MEASUREMENT_CONTEXT: in ethyl formate, 298.15 K
METRIC_NAME: solubility (mole fraction)
Reply with just the number.

response.value for "Cc1cc(Cl)ccc1OCC(=O)O" (field: solubility (mole fraction)) = 0.0914

---

# MEASUREMENT_CONTEXT: in n-propyl acetate, 303.15 K
METRIC_NAME: solubility (mole fraction)
Kindly provide the number alone.

Per the record, "Cc1cc(Cl)ccc1OCC(=O)O" has solubility (mole fraction) of 0.161

---

# MEASUREMENT_CONTEXT: in methyl acetate, 298.15 K
METRIC_NAME: solubility (mole fraction)
Please reply with the value in numeric form only.

Kindly note the recorded solubility (mole fraction) for "Cc1cc(Cl)ccc1OCC(=O)O" , which is 0.149

---

# MEASUREMENT_CONTEXT: in n-propyl acetate, 323.15 K
METRIC_NAME: solubility (mole fraction)
Answer with a number only.

GET /value?item= "Cc1cc(Cl)ccc1OCC(=O)O" &field=solubility (mole fraction) returns 0.297

---

# MEASUREMENT_CONTEXT: in isopropanol, 318.15 K
METRIC_NAME: solubility (mole fraction)

The compound listed as "Cc1cc(Cl)ccc1OCC(=O)O" shows solubility (mole fraction) equal to 0.364

---

# MEASUREMENT_CONTEXT: in n-propyl acetate, 298.15 K
METRIC_NAME: solubility (mole fraction)

solubility (mole fraction) reading for "Cc1cc(Cl)ccc1OCC(=O)O" : 0.144

---

# MEASUREMENT_CONTEXT: in isopropanol, 323.15 K
METRIC_NAME: solubility (mole fraction)
Answer with a bare number; do not write a unit.

Record summary for "Cc1cc(Cl)ccc1OCC(=O)O" : reported solubility (mole fraction) = 0.428

---

# MEASUREMENT_CONTEXT: in toluene, 278.15 K
METRIC_NAME: solubility (mole fraction)

Measured solubility (mole fraction), "Cc1cc(Cl)ccc1OCC(=O)O" : 0.00841

---

# MEASUREMENT_CONTEXT: in acetone, 323.15 K
METRIC_NAME: solubility (mole fraction)
Respond with the number and no other words.

The reported solubility (mole fraction) of the compound "Cc1cc(Cl)ccc1OCC(=O)O" was 0.32

---

# MEASUREMENT_CONTEXT: in ethyl acetate, 313.15 K
METRIC_NAME: solubility (mole fraction)

"Cc1cc(Cl)ccc1OCC(=O)O" has a reported solubility (mole fraction) of 0.221
